Catalogue of DC50 readings, one per entry.
Biological target: KRAS G12V (Homo sapiens, UniProt P01116, G12V)
Construct: SW620-KRAS (G12V)-HiBit-KI cell (Pharmaron); host or cells: SW620-KRAS (G12V)-HiBit-KI cells (HiBiT knock-in at the endogenous KRAS locus)
Sequence (P01116 1-188 isoform P01116-2 G12V): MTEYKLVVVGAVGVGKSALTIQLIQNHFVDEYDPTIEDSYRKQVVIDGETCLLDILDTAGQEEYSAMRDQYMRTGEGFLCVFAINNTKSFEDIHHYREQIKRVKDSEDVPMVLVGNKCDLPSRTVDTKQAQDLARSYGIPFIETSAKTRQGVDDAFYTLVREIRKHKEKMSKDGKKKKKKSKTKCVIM
Assay: KRAS G12V HiBit assay
Assay type: cell-based
Conditions: SW620-KRAS (G12V)-HiBit-KI cells, compound treatment for 24 hours, class symbols

Completed entries (count: 3):
CCc1c(F)ccc2cc(O)cc(-c3ncc4c(N5CCC[C@@](C)(O)C5)nc(OC[C@@]56CCCN5[C@H](COC(=O)N5CCC(Oc7ccc(-c8ccc9c(c8)n(C)c(=O)n9C8CCC(=O)NC8=O)cc7)CC5)CC6)nc4c3F)c12 (some centres unmarked) [Compound 496] ... > 100 nM
C#Cc1c(F)ccc2cc(O)cc(-c3ncc4c(N5CCC[C@@](C)(O)C5)nc(OC[C@@]56CCCN5[C@H](COC(=O)N5CCCC7(CN(CC8CCN(c9ccc%10c(c9)n(C)c(=O)n%10C9CCC(=O)NC9=O)CC8)C7)C5)CC6)nc4c3F)c12 (some centres unmarked) [Compound 329] ... > 100 nM
C#Cc1c(F)ccc2cc(O)cc(-c3ncc4c(N5CCOCC5)nc(OCC5(CN6CCN(CC7CCN(c8ccc9c(c8)n(C)c(=O)n9C8CCC(=O)NC8=O)CC7)CC6)CC5)nc4c3F)c12 (centres unmarked) [Compound 18] ... > 100 nM

Quote KRAS G12V (Homo sapiens, UniProt P01116, G12V) DC50 for entry CCc1c(F)ccc2cc(O)cc(-c3ncc4c(N5CCC[C@@](C)(O)C5)nc(OC[C@]56CCCN5[C@H](COC(=O)N5CCC(COc7ccc8c(c7)n(C)c(=O)n8C7CCC(=O)NC7=O)CC5)CC6)nc4c3F)c12 (some centres unmarked) [Compound 301] .
< 10 nM

Quote KRAS G12V (Homo sapiens, UniProt P01116, G12V) DC50 for entry C#Cc1c(F)ccc2cc(O)cc(-c3ncc4c(N5CCC[C@@](C)(O)C5)nc(OC[C@@]56CCCN5[C@H](COC(=O)N5CCC7(CCC(CN8CCC(c9ccc%10c(c9)n(C)c(=O)n%10C9CCC(=O)NC9=O)CC8)CC7)C5)CC6)nc4c3F)c12 (some centres unmarked) [Compound 454] .
< 10 nM

Quote KRAS G12V (Homo sapiens, UniProt P01116, G12V) DC50 for entry C#Cc1c(F)ccc2cc(O)cc(-c3ncc4c(N5CCC[C@@](C)(O)C5)nc(OCC5(CN6CCC(CN7CCC(c8cccc9c8n(C)c(=O)n9C8CCC(=O)NC8=O)CC7)CC6)CC5)nc4c3F)c12 (some centres unmarked) [Compound 65] .
> 100 nM

Quote KRAS G12V (Homo sapiens, UniProt P01116, G12V) DC50 for entry C#Cc1c(F)ccc2cc(O)cc(-c3ncc4c(N5CCC[C@@](C)(O)C5)nc(OC[C@@]56CCCN5[C@H](COC(=O)N5CCC(N7CCC(c8cccc9c8n(C)c(=O)n9C8CCC(=O)NC8=O)CC7)CC5)CC6)nc4c3F)c12 (some centres unmarked) [Compound 148] .
> 100 nM

Quote KRAS G12V (Homo sapiens, UniProt P01116, G12V) DC50 for entry CCc1c(F)ccc2cc(O)cc(-c3ccc4c(N5CCC[C@@](C)(O)C5)nc(OC[C@@]56CCCN5[C@H](COC(=O)N5CCC7(CC5)CC(N5CCC(c8ccc9c(c8)n(C)c(=O)n9C8CCC(=O)NC8=O)CC5)C7)CC6)nc4c3F)c12 (some centres unmarked) [Compound 355] .
< 10 nM

Quote KRAS G12V (Homo sapiens, UniProt P01116, G12V) DC50 for entry C#Cc1c(F)ccc2cccc(-c3ncc4c(N5CCC[C@@](C)(O)C5)nc(OC[C@@]56CCCN5[C@H](COC(=O)N5CCC(C7CCN(c8ccc9c(c8)n(C)c(=O)n9C8CCC(=O)NC8=O)CC7)CC5)CC6)nc4c3F)c12 (some centres unmarked) [Compound 152] .
> 100 nM

Quote KRAS G12V (Homo sapiens, UniProt P01116, G12V) DC50 for entry CCc1c(F)ccc2cc(O)cc(-c3ncc4c(N5CCC[C@@](C)(O)C5)nc(OC[C@@]56CCCN5[C@H](COC(=O)N5CCC(CN7CCC(c8ccc9c(c8F)n(C)c(=O)n9C8CCC(=O)NC8=O)CC7)CC5)CC6)nc4c3F)c12 (some centres unmarked) [Compound 96] .
< 10 nM

Quote KRAS G12V (Homo sapiens, UniProt P01116, G12V) DC50 for entry C#Cc1c(F)ccc2cc(O)cc(-c3ncc4c(N5CCC[C@@](C)(O)C5)nc(OC[C@@]56CCCN5[C@H](COC(=O)N5CCC(CC#Cc7cccc8c7n(C)c(=O)n8C7CCC(=O)NC7=O)CC5)CC6)nc4c3F)c12 (some centres unmarked) [Compound 374] .
10 to 100 nM

Quote KRAS G12V (Homo sapiens, UniProt P01116, G12V) DC50 for entry CCc1c(F)ccc2cc(O)cc(-c3ncc4c(N5CCC[C@@](C)(O)C5)nc(OC[C@@]56CCCN5[C@H](COC(=O)N5CCC(C)(CN7CCC(c8ccc9c(c8)n(C)c(=O)n9C8CCC(=O)NC8=O)CC7)CC5)CC6)nc4c3F)c12 (some centres unmarked) [Compound 157] .
< 10 nM

Quote KRAS G12V (Homo sapiens, UniProt P01116, G12V) DC50 for entry C#Cc1c(F)ccc2cc(O)cc(-c3ncc4c(N5CCC[C@@](C)(O)C5)nc(OC[C@@]56CCCN5[C@H](COC(=O)N5CCC(CN7CCC(c8ccc9c(c8)n(C)c(=O)n9C8CCC(=O)NC8=O)CC7)CC5)CC6)nc4c3F)c12 (some centres unmarked) [Compound 4] .
< 10 nM

Quote KRAS G12V (Homo sapiens, UniProt P01116, G12V) DC50 for entry CCc1c(F)ccc2cc(O)cc(-c3ncc4c(N5CCC[C@@](C)(O)C5)nc(OC[C@@]56CCCN5[C@H](COC(=O)N5CCC(CN7CCC(c8ccc9c(C%10CCC(=O)NC%10=O)nn(C)c9c8)CC7)CC5)CC6)nc4c3F)c12 (some centres unmarked) [Compound 99] .
< 10 nM

Quote KRAS G12V (Homo sapiens, UniProt P01116, G12V) DC50 for entry CCc1c(F)ccc2cc(O)cc(-c3ncc4c(N5CCC[C@@](C)(O)C5)nc(OC[C@@]56CCCN5[C@H](CNC(=O)c5ccc(CN7CCC(c8ccc9c(c8)n(C)c(=O)n9C8CCC(=O)NC8=O)CC7)cc5F)CC6)nc4c3F)c12 (some centres unmarked) [Compound 494] .
10 to 100 nM

Quote KRAS G12V (Homo sapiens, UniProt P01116, G12V) DC50 for entry CCc1c(F)ccc2cc(O)cc(-c3ncc4c(N5CCCC(C)(CO)C5)nc(OC[C@@]56CCCN5[C@H](COC(=O)N5CCC(CN7CCC(c8ccc9c(c8)n(C)c(=O)n9C8CCC(=O)NC8=O)CC7)CC5)CC6)nc4c3F)c12 (some centres unmarked) [Compound 341] .
> 100 nM

Quote KRAS G12V (Homo sapiens, UniProt P01116, G12V) DC50 for entry C#Cc1c(F)ccc2cc(O)cc(-c3ncc4c(N5CCC[C@@](C)(O)C5)nc(OCC5(CN6CCC7(CC6)CC(N6CCC(c8cccc9c(C%10CCC(=O)NC%10=O)nn(C)c89)CC6)C7)CC5)nc4c3F)c12 (some centres unmarked) [Compound 69] .
< 10 nM
